# Protocol details: Clinical study: plasma miglustat PK
# Assay type: in vivo, human
# Setup conditions: human, plasma, oral, 20 mg/kg, 260 mg miglustat, single dose; with 20 mg/kg ATB200; read-out: Cmax (geometric mean)
Assay readout: Cmax (ng/mL)

chemical_smiles=CCCCN1C[C@H](O)[C@@H](O)[C@H](O)[C@H]1CO unit_label=ng/mL reported=3550

---

# Protocol details: Miglustat toxicokinetics
# Type: in vivo, cynomolgus monkey
# Setup conditions: cynomolgus monkey, plasma, po, 25 mg/kg, Day 85; 50 mg/kg ATB200 + 25 mg/kg miglustat
Assay readout: AUC(0-t) (ng·h/mL)

chemical_smiles=CCCCN1C[C@H](O)[C@@H](O)[C@H](O)[C@H]1CO reported=49100
